The measurements presented in this section are drawn from patent US20180371091A1.

tgt: T1, human ICOS-hFc (homodimeric, bivalent) (human, UniProt Q9Y6W8 21-141)
T1 construct: also called hICOS-Fc; hICOS-hFc; not shown: human IgG1 Fc (IgG1 backbone)
T1 sequence: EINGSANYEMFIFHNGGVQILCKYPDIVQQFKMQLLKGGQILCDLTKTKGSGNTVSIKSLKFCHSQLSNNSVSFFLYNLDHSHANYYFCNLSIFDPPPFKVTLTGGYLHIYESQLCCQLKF
testMethodNotes: BLI, bivalent binding to homodimeric ICOS-Fc
Please go through the items and note down their koff.

Given the binder 7F12 (antibody, V domains shown, Armenian hamster monoclonal tested as IgG; also called hamster anti-ICOS 7F12) VH: EVQLVESGGGLVKPGGSLTLSCAASGFTFSDYWMDWVRQGPGKGLEWVGNIDEDGSTTYYAPFVKGRFTISRDNAKKTLYLQMNSVKSEDTATYYCTRWGRYAFDSWGQGTLVTVSS VL: DIVMTQSPSSLAVSPGDKVTINCKSSQSLLSGNYNYLAWYQQKTGQAPKLLIFYASTRHTGVPDRFMGSGSGTDFSLTINSFQTEDLGDYYCQHHYSTPPTFGPGTKLEIK , what is its reported koff?
2.3e-05 s⁻¹

Another binder: 36E10 (antibody, V domains shown, Armenian hamster monoclonal tested as IgG; also called hamster anti-ICOS 36E10) VH: EVQLVESGGGLVKPGGSLKLSCAASGFTFSDYWMDWVRQAPGKGLEWVGNIDEDGSITEYSPFVKGRFTISRDNVKNILYLQMNSVKSEDTATYYCTRWGRFAFDSWGQGTLVTVSS VL: DIVMTQSPSSLAVSPGDRVTINCKSSQSLLSGSFHYLTWYQQKTGQAPKLLIFYASTRHTGVPDRFMGSGSGTDFTLTINSFQTEDLGDYYCHHHYNAPPTFGPGTKLELR
< 1e-07 s⁻¹

Another binder: 16G10 (antibody, V domains shown, Armenian hamster monoclonal tested as IgG; also called hamster anti-ICOS 16G10) VH: EVQLVESGGGLVKPGGSLKLSCAASGFTFSDYWMDWVRQAPGKGLEWVGNIDHDGNIINFAPSVKGRFTISRDNAKNTLYLQMNSVKSEDTATYYCARWGHYAFDSWGQGTLVTVSS VL: DIVMTQSPSSLAVSAGDKVTINCKSSQSLLSSGYNYLIWYQQKTGQAPKLLIFYASTRHTGVPDRFIGSGSGTDFTLTITSFQTEDLGDYYCQHHYSSPPTFGPGTKLEIK
< 1e-07 s⁻¹

Another binder: 35A9 (antibody, V domains shown, Armenian hamster monoclonal tested as IgG; also called hamster anti-ICOS 35A9) VH: EVQLVESGGGLVKPGGSLKLSCAASGFTFSDYWMDWVRQAPGKGLEWVGNIDEDGSIAEYSPFVKGRFTISRDNVKNTLYLQMNSVKSEDTATYYCSRWGRFAFDSWGQGTLVTVSS VL: DIVMTQSPSSLAVSAGDRVTINCKSSQSLLSGSFNYLTWYQQKTGQAPKLLIFYASTRHTGVPDRFMGSGSGTDFTLTINSFQTEDLGDYYCHHHYNAPPTFGPGTKLELR
< 1e-07 s⁻¹

Another binder: 37A10 (antibody, V domains shown, Armenian hamster monoclonal tested as IgG; also called hamster anti-ICOS 37A10) VH: EVQLVESGGGLVKPGGSLKLSCAASGFTFSDYWMDWVRQAPGKGLEWVGNIDEDGSITEYSPFVKGRFTISRDNVKNTLYLQMNSVKSEDTATYYCTRWGRFGFDSWGQGTLVTVSS VL: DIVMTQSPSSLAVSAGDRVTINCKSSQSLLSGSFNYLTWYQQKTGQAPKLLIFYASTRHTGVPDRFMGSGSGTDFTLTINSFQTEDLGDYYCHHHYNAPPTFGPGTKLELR
< 1e-07 s⁻¹
